The measurements presented in this section are drawn from the NIST ThermoML archive (doi:10.1021/je5005752).

test: xn = mol fraction of the nth substance listed; details: 318.15 K; 101 kPa; Liquid; Falling or rolling sphere viscometry; x1 = 0.5
PROPERTY NAME: viscosity (mPa·s)

CCCC(=O)OCC [ethyl butanoate] + CCCCCCO ... 0.8422
CCCC(=O)OCC [ethyl butanoate] + CC(C)CO ... 0.6676
CCCC(=O)OCC [ethyl butanoate] + CCCCO ... 0.6556
CCCC(=O)OCC [ethyl butanoate] + CC(C)CCO ... 0.7346

---

test: xn = mol fraction of the nth substance listed; details: 303.15 K; 101 kPa; Liquid; Vibrating tube method; x1 = 0.5
PROPERTY NAME: mass density (kg/m3)

CCCC(=O)OCC [ethyl butanoate] + CCCCCCO ... 839.24
CCCC(=O)OCC [ethyl butanoate] + CC(C)CO ... 836
CCCC(=O)OCC [ethyl butanoate] + CCCCO ... 839.8
CCCC(=O)OCC [ethyl butanoate] + CC(C)CCO ... 836.86
